Cited source: patent US20150158934A1

Target: T1, CA018 gp140/420 (A/G) (HIV-1)
T1 construct: also called gp120 of CA18
Assay: SPR
Measured kon values are reported for all entries that follow.
// note: answer is a bare numeric in M⁻¹ s⁻¹

binder	kon / M⁻¹ s⁻¹
L91H9 (VHH, Purified by IMAC; tags not written into the chain) VHH: EVQLVESGGGLVQAGGSLRLSCAVSGATFDDYAIGWFRQAPGKEREGVSYIGCNDGSTYYAGSVKGRFTISCDYAKNTVYLQMNSLKPEDTAVYYCAAAAQWATIRWIHEYDYDTWGQGTQVTVSS	1.33e+06
L91F10 (VHH, Purified by IMAC; tags not written into the chain) VHH: EVQLVESGGGLVQPGGSLTLSCVASGFTLDGYAIGWFRQAPGKEVESVSCITGRHGTIYYADSVMGRFTISRDNAKSTVYLQMNSLKPEDTAVYYCAADGFDTPCVAGTDWQYDYWGQGTQVTVSS	58800
L82B4F (VHH, Family member of L81H9; tags not written into the chain) VHH: EVQLVESGGGLVQAGGSLRLSCAASGFTSDDYAIGWFRRAPGKEREGVSYISIEDGSTYSADSVKGRFTISSDYAKNTVYLQMNGLKPEDTAVYYCAAAILGDSVRWLQEYDYDYWGQGTQVTVSS	850
L8Cj3 (VHH, 207 chosen because J3r is said to carry S82aN against L8Cj3; also called L8CjJ3; L9Cj3) VHH: EVQLVESGGGLVQAGGFLRLSCELRGSIFNQYAMAWFRQAPGKEREFVAGMGAVPHYGEFVKGRFTISRDNAKSTVYLQMSSLKPEDTAIYFCARSKSTYISYNSNGYDYWGRGTQVTVSS	4490

Then this binder:
# input Given the entry L92E7 (VHH, Purified by IMAC; tags not written into the chain) VHH: EVQLVESGGGLVQPGGSLRLSCAASGNIVSIDAAGWFRQAPGKQREPVATILTGGATNYADSVKGRFTISRDNAKNTVYLQMSSLKPEDTAVYYCYAPMIYYGGRYSDYWGQGTQVTVSS , report its measured kon.
# output 18000
